MEASURED_QUANTITY: glass transition temperature (°C)

Take a look at these entries with their results.
In: What measured glass transition temperature goes with *c1ccc(Oc2ccc(N3C(=O)c4cccc(Oc5c(C)cc(Cc6cc(C)c(Oc7cccc8c7C(=O)N(*)C8=O)c(C)c6)cc5C)c4C3=O)cc2)cc1 (repeat unit) ?
Out: 270.00

In: What measured glass transition temperature goes with *C(=O)Nc1ccc(C(c2ccc(NC(=O)c3ccc4c(c3)C(=O)N(c3cccc5c(N6C(=O)c7ccc(*)cc7C6=O)cccc35)C4=O)cc2)(C(F)(F)F)C(F)(F)F)cc1 (repeat unit) ?
Out: 250.00

In: What measured glass transition temperature goes with *Oc1ccc(Oc2ccc(C(=O)c3ccc(C(=O)c4ccc(*)cc4)cc3)cc2)cc1-c1ccccc1 (repeat unit) ?
Out: 166.00

In: What measured glass transition temperature goes with *Oc1ccc(-c2ccc(Oc3ccc(C(=O)c4cccc(C(=O)c5ccc(*)cc5)c4)cc3)cc2)cc1 (repeat unit) ?
Out: 159.00

In: What measured glass transition temperature goes with *CC(*)N (repeat unit) ?
Out: 57.00

In: What measured glass transition temperature goes with *CC(*)OC(=O)C(C)(CC)C(C)(C)C (repeat unit) ?
Out: 120.00

1. *c1ccc(-c2nc3cc(-c4ccc5nc(-c6ccccc6)c(*)nc5c4)ccc3nc2-c2ccccc2)cc1 (repeat unit)
2. *CC(*)(C)C(=O)OCc1ccc2c(c1)c1ccccc1n2CCCC (repeat unit)
In: Please compare: 1 and 2 . Report which one has the smaller glass transition temperature value. Indicate your choice by writing its label.
Out: 2
(2: 87.00 °C, 1: 367.43 °C)
